// provenance: patent US20240000765A1

Provide the recorded pIC50 for the entries that follow.
pIC50: −log10 of the molar value.

Input line: Provide the documented pIC50 with THRα (Homo sapiens, UniProt P10827) as the system for "N#Cc1nn(-c2cc(Cl)c(Oc3n[nH]c(=O)c4ccccc34)c(Cl)c2)c(=O)[nH]c1=O"
Sequence (P10827 1-410 isoform P10827-2): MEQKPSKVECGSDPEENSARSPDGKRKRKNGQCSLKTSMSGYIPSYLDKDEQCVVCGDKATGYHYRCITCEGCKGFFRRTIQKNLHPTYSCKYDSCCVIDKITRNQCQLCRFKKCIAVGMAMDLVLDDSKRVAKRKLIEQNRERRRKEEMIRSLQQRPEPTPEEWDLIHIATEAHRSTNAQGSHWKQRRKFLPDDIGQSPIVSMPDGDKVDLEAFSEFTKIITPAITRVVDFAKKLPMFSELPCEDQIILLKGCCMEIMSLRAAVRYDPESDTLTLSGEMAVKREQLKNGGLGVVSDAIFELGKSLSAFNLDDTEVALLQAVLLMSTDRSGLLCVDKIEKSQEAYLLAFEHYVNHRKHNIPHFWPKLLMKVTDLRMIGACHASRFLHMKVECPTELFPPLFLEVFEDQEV
Output line: < 5.00

Input line: Value wanted: pIC50 (THRα (Homo sapiens, UniProt P10827)) of entry "N#Cc1nn(-c2cc(Cl)c(Oc3n[nH]c(=O)c4c3CCCC4)c(Cl)c2)c(=O)[nH]c1=O"
Output line: < 5.00

Input line: Give the reported pIC50 for "N#Cc1nn(-c2cc(Cl)c(Oc3n[nH]c(=O)c4c(Cl)cccc34)c(Cl)c2)c(=O)[nH]c1=O" (system: THRα (Homo sapiens, UniProt P10827)).
Output line: < 5.00

====

Tested on: FXR-regulated gene expression (SHP, BSEP, FGF-19) in human HuH7 hepatoma cells
Assay: Cell-based RNA assay of FXR-regulated gene expression
Conditions: Huh-7, 11 h at 37° C., RT-qPCR, read-out: SHP Gene induction/HuH7 EC50
READOUT: EC50 (nM)
Supply the numeric figure in nM, leaving out any unit text.

Input line: # query: EC50 of entry CC[C@H]1[C@@H](O)[C@@H]2[C@H](CC[C@]3(C)[C@@H]([C@H](C)CCC(=O)O)CC[C@@H]23)[C@@]2(C)CC[C@@H](O)C[C@@H]12 [OCA, obeticholic acid]
Output line: 200

====

Biological target: THRα (Homo sapiens)
Assay: Agonistic activity toward THRα
READOUT: EC50 (µM)
The answer is to be given in µM; state only the numeric part.

Input line: Return reported EC50; argument: N#Cc1nn(-c2cc(Cl)c(Oc3n[nH]c(=O)c4ccccc34)c(Cl)c2)c(=O)[nH]c1=O [Compound 2]
Output line: 3.98
